# measured-target: rhNav1.7α + β1-β2-β3 (rhesus monkey)
# experiment-description: cell-based or functional assay
quantity-name: Qpatch IC50 (nM)
Field format: number, assumed nM, no unit text.

[ask] Fill in the blank: the reported Qpatch IC50 of F010302379 (bispecific antibody, also called F0103275B05(E1D, N93R)-50GS-F0103500E03(P14A, L108Q)-FLAG3-HIS6) DVQLVESGGGLVQPGGSLRLSCAASGSIFNINSMAWYRRAPGKQRELVASSTNGGSTNYADSVKGRFTISRDNAKRVYLQMNSLTPEDTAVYYCRALLQPSIYDISRTYWGQGTLVTVSSGGGGSGGGGSGGGGSGGGGSGGGGSGGGGSGGGGSGGGGSGGGGSGGGGSEVQLVESGGGLVQAGGSLRLSCAASGRTFSRYQMGWFRQAPGKEREFVAYISWSGSTRYVDSVKGRFTISRDNAKNTVYLQMNSLKPEDTAVYHCAAGTAGIISSRPETYDSWGQGTQVTVSSGAADYKDHDGDYKDHDIDYKDDDDKGAAHHHHHH is ____.
[reply] 131

[ask] Request: F010302375 (bispecific antibody, also called F0103275B05(E1D, N93R)-50GS-F0103478E09(L108Q)-FLAG3-HIS6) DVQLVESGGGLVQPGGSLRLSCAASGSIFNINSMAWYRRAPGKQRELVASSTNGGSTNYADSVKGRFTISRDNAKRVYLQMNSLTPEDTAVYYCRALLQPSIYDISRTYWGQGTLVTVSSGGGGSGGGGSGGGGSGGGGSGGGGSGGGGSGGGGSGGGGSGGGGSGGGGSEVQLVESGGGLVQAGGSLRLSCAASGRAFSTLAMGWFRQAPGKEREFVAAISRNGNNSATGDSLKGRFTISRDSTKSTVFLQMNTLKPEDTAVYYCAAISTPSASHPYVRKESYRYWGQGTQVTVSSGAADYKDHDGDYKDHDIDYKDDDDKGAAHHHHHH
[reply] 2.8

[ask] # iterate: F010302378 (bispecific antibody, also called F0103275B05(E1D, N93R)-50GS-F0103495F09-FLAG3-HIS6) DVQLVESGGGLVQPGGSLRLSCAASGSIFNINSMAWYRRAPGKQRELVASSTNGGSTNYADSVKGRFTISRDNAKRVYLQMNSLTPEDTAVYYCRALLQPSIYDISRTYWGQGTLVTVSSGGGGSGGGGSGGGGSGGGGSGGGGSGGGGSGGGGSGGGGSGGGGSGGGGSEVQLVESGGGLVQAGSSLSLSCAASGRALSTYAMGWFRQAPGKEREFVARISRSGITTYYTDSVKGRFTISRDRAKDTVYLQMNSLKPEDTAIYLCAADASTNPAGYYLRNRYDYWGQGTLVTVSSGAADYKDHDGDYKDHDIDYKDDDDKGAAHHHHHH
[reply] 2.6

Let us examine a further case.
[ask] Name the reported Qpatch IC50 value associated with the binder F010302377 (bispecific antibody, also called F0103275B05(E1D, N93R)-50GS-F0103492E09-FLAG3-HIS6) DVQLVESGGGLVQPGGSLRLSCAASGSIFNINSMAWYRRAPGKQRELVASSTNGGSTNYADSVKGRFTISRDNAKRVYLQMNSLTPEDTAVYYCRALLQPSIYDISRTYWGQGTLVTVSSGGGGSGGGGSGGGGSGGGGSGGGGSGGGGSGGGGSGGGGSGGGGSGGGGSEVQLVESGGGLVQAGGSLRLSCAASKSILSFAYMRWYRQAPGKQREFVASIAIGGATSYTDSVKGRFTISRDNAKNTVYLQMNSLKPEDTAVYYCSAPAGQYRGQGTLVTVSSGAADYKDHDGDYKDHDIDYKDDDDKGAAHHHHHH
[reply] 75
